Measured TGI, listed per entry for reference.
- System: EKVX NSCLC
- protocol_text: NCI tumour cell line growth inhibition, 48 h

# annotated cases, reported TGI shown
O=C1CS[C@@](CC(c2ccc(Cl)cc2)c2ccc(Cl)cc2)(c2ccc(Cl)cc2)N1: > 100 µM
CCCC(=O)NC(Nc1ccc(F)cc1)(C(F)(F)F)C(F)(F)F: > 100 µM
COc1ccc([C@]23CCN4COC[C@@H]([C@H]42)C2(CC3)OCC(C)(C)CO2)cc1OC: > 100 µM
c1csc(-c2ccsc2-c2ccsc2)c1: > 100 µM
COc1ccc(-c2ccc(-c3ccc(C(=N)N)cn3)o2)cc1Cl: 4.26 µM

Attention now turns to another entry.
What value of TGI has been reported for the following molecule? `COc1cc(NC(=O)NCc2ccco2)ccc1-c1ccc(NC(=O)NCc2ccco2)cc1OC`
31 µM

###

- System: SK-OV-3 ovarian
- protocol_text: NCI tumour cell line growth inhibition, 48 h
test_readout: TGI

# annotated cases, reported TGI shown
C[C@@H](COCCC(=O)N1CCN(c2ncc(C(F)(F)F)cn2)CC1)Nc1cn[nH]c(=O)c1C(F)(F)F: > 100 µM
O=C1CS[C@@](CC(c2ccc(Cl)cc2)c2ccc(Cl)cc2)(c2ccc(Cl)cc2)N1: > 100 µM
C=C(CNC(=O)c1ccccc1)c1ccc(C(=O)Nc2ccccc2N)cc1: > 100 µM

What value of TGI has been reported for the following compound? COC([C@@H](OC(=O)c1ccccc1)[C@H](OC(=O)c1ccccc1)C(O)COC(=O)c1ccccc1)n1cc(C)c(=O)[nH]c1=O (stereo not given in full)
> 100 µM

Try this compound next: `CN(C)CCSCCO`
> 100 µM

Try this compound next: `CC(C)C[C@H](NC(=O)[C@@H](NC(=O)c1cccc(-c2ccccc2)n1)[C@@H](C)O)B(O)O`
7.82 µM

Try this compound next: COc1cc2c(cc1OC)[C@@](C)(C(O)C(O)C(C)(C)O)NCC2 (stereo not given in full)
> 100 µM

Try this compound next: `Cc1ccc(Nc2cc(C)nc(NCCCNc3ccnc4cc(Cl)ccc34)n2)cc1`
3.35 µM

Try this compound next: `O=C1C(=O)N(c2nccs2)C(=O)C(=O)C1c1nc2ccccc2s1`
> 100 µM

Try this compound next: C=C1C(=O)OC2/C=C(\CO)CC/C=C(\CO)CC(OC(=O)C(C)C)C12 (stereo not given)
> 55.9 µM

###

- Test system: HOP-92 NSCLC
- protocol_text: NCI tumour cell line growth inhibition, 48 h; in the data active = GI50 below about 0.43 µM; inactive = the rest
Use one of these outcomes when replying: active, inactive

O=S(=O)(NC1=NCCN1C(=S)SN1CCn2c1nsc2=S)c1ccccc1Cl: inactive
CSc1ccc(SC2c3ccc(C)cc3Oc3nc(N)c(C#N)c(N)c32)cc1 (stereo not given): inactive
CC(=O)[O-].[Zn].c1ccc(/C(=N\Nc2ccccn2)c2ccccn2)cc1: active
CC(C)C(=O)[O-].CC(C)C(=O)[O-].N.N.N.N.[Co+3].[O-][Cl+3]([O-])([O-])[O-]: inactive

So what was the verdict on `COc1cc2c3c(n(CCCBr)c(=O)c2cc1OC)-c1ccc(F)cc1C3=O` in this test?
inactive

Try this compound next: CCC1(NC(=O)c2cc(F)c(F)c(F)c2F)C(=O)NC(=O)N(C(C)C)C1=O (stereo not given)
inactive

Try this compound next: COc1cccc(C2SC(C)C(=O)N2CCc2cccs2)c1 (stereo not given)
inactive

Try this compound next: `FC(F)(F)c1cccc2c(SCCc3n[nH]c(=S)o3)ccnc12`
inactive

Try this compound next: Nc1nccc2c1ncn2C1OC(CO)C(O)C1O (stereo not given)
inactive

Try this compound next: `CCCCCCCCCCCCCCCCCCOc1ccccc1CC(=O)NCC[N+](C)(C)C`
inactive
